- system.name: UniProt P29274
- Sequence (P29274 whole entry): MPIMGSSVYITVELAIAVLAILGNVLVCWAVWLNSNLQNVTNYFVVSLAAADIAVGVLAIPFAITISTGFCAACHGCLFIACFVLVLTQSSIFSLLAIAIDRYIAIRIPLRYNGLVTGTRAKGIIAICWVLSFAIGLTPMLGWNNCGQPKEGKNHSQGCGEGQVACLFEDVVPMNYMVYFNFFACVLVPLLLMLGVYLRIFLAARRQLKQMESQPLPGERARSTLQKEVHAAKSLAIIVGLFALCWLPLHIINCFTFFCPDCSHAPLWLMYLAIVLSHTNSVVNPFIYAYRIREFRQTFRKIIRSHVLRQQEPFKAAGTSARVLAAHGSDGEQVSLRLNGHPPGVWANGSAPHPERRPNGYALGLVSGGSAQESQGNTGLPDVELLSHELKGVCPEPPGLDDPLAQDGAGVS
- assay.details: Displacement of [3H]ZM241385 from human adenosine A2A receptor expressed in CHO cell membranes at 1 uM after 60 mins by scintillation counting method relative to control
outcome.measure: inhibition (%)

Worked examples, 8 molecules total:
INSERT INTO measurements (smiles_record, outcome_measure, value_reported) VALUES
  ('COc1ccc(-c2cn3cc(-c4ccccc4)nc(N)c3n2)cc1', 'inhibition', 1),
  ('COc1cccc(-c2cn3cc(-c4ccccc4)nc3c(N)n2)c1', 'inhibition', 24),
  ('O=C(c1ccccc1)N(C(=O)c1ccccc1)c1nccn2cc(-c3ccccc3)nc12', 'inhibition', 5),
  ('O=C(Nc1nccn2cc(-c3ccccc3)nc12)C(c1ccccc1)c1ccccc1', 'inhibition', 1),
  ('Nc1nc(-c2ccc(Cl)cc2)cn2cc(-c3ccccc3)nc12', 'inhibition', 1),
  ('COc1ccc(-c2cn3cc(-c4ccccc4)nc3c(N)n2)cc1', 'inhibition', 23),
  ('O=C(Nc1nccn2cc(-c3ccco3)nc12)c1ccccc1', 'inhibition', 1),
  ('COc1ccc(-c2cn3ccnc(N)c3n2)cc1', 'inhibition', 1);

1 = COc1ccc(C(=O)Nc2nccn3cc(-c4ccccc4)nc23)cc1
2 = O=C(Nc1nc(-c2ccccc2)cn2cc(-c3ccccc3)nc12)c1ccco1
3 = Nc1nc(-c2cccc(NC(=O)Cc3ccccc3)c2)cn2cc(-c3ccccc3)nc12
4 = Nc1nccn2cc(-c3ccccc3)nc12
Sort ascending by inhibition. Answer format: the labels, in the requested order.
2, 1, 4, 3
(2: 1%, 1: 3%, 4: 13%, 3: 33%)

====

- system.name: Adenosine receptor A3 (Homo sapiens)
- assay.details: Displacement of [125I]AB-MECA from human adenosine A3 receptor expressed in CHO cell membranes at 1 uM after 120 mins by scintillation counting method relative to control
outcome.measure: inhibition (%)

Worked examples, 8 compounds total:
INSERT INTO assay_data (smiles_record, unit_annotation, value_reported) VALUES
  ('Nc1nc(-c2ccco2)cn2cc(-c3ccco3)nc12', '%', 38),
  ('Nc1nc(-c2cccc(NC(=O)Cc3ccccc3)c2)cn2cc(-c3ccccc3)nc12', '%', 8),
  ('Nc1nc(-c2ccc(Cl)cc2)cn2cc(-c3ccccc3)nc12', '%', 1),
  ('Nc1nccn2cc(-c3ccccc3)nc12', '%', 12),
  ('Nc1nc(Br)cn2cc(-c3ccco3)nc12', '%', 28),
  ('Nc1nc(-c2ccc(OCc3ccccc3)cc2)cn2cc(-c3ccccc3)nc12', '%', 1),
  ('COc1ccc(-c2cn3cc(Br)nc(N)c3n2)cc1', '%', 24),
  ('Nc1nc(-c2cccc(C(=O)O)c2)cn2cc(-c3ccccc3)nc12', '%', 1);

a = O=C(Nc1nccn2cc(-c3ccccc3)nc12)c1cccnc1
b = COc1ccc(-c2cn3cc(-c4ccccc4)nc3c(N)n2)cc1
Field: entry with larger inhibition (options a / b ). Give the label of your selection.
a
(a: 42%, b: 23%)

P = O=C(Nc1nccn2cc(-c3ccccc3)nc12)c1ccco1
Q = COc1ccc(-c2cn3ccnc(N)c3n2)cc1
// compare: P vs Q , metric inhibition, want the smaller Give the label of your selection.
Q
(Q: 1%, P: 40%)

====

- system.name: Adenosine receptor A1 (Homo sapiens) (UniProt P30542)
- assay.details: Displacement of [3H]DPCPX from human adenosine A1 receptor expressed in CHO cell membranes at 1 uM after 120 mins by scintillation counting method relative to control
outcome.measure: inhibition (%)

Worked examples, 7 compounds total:
INSERT INTO assay_data (smiles_record, outcome_measure, value_reported) VALUES
  ('O=C(Nc1nc(-c2ccccc2)cn2cc(-c3ccccc3)nc12)c1ccc(F)cc1', 'inhibition', 1),
  ('O=C(Nc1nc(-c2ccccc2)cn2cc(-c3ccccc3)nc12)c1ccc(Cl)cc1', 'inhibition', 1),
  ('O=C(Nc1nc(-c2ccccc2)cn2cc(-c3ccccc3)nc12)c1ccccc1', 'inhibition', 1),
  ('O=C(c1ccc(F)cc1)N(C(=O)c1ccc(F)cc1)c1nc(-c2ccccc2)cn2cc(-c3ccccc3)nc12', 'inhibition', 1),
  ('Nc1nc(-c2ccc(Cl)cc2)cn2cc(-c3ccccc3)nc12', 'inhibition', 3),
  ('COc1ccc(-c2cn3ccnc(N)c3n2)cc1', 'inhibition', 1),
  ('O=C(Nc1nccn2cc(-c3ccccc3)nc12)C(c1ccccc1)c1ccccc1', 'inhibition', 32);

P = Nc1nc(-c2cccc(NC(=O)Cc3ccccc3)c2)cn2cc(-c3ccccc3)nc12
Q = O=C(Nc1nccn2cc(-c3ccco3)nc12)c1ccccc1
// compare: P vs Q , metric inhibition, want the smaller Give the label of your selection.
Q

====

- system.name: Adenosine receptor A3 (Homo sapiens)
- assay.details: Displacement of [125I]AB-MECA from human adenosine A3 receptor expressed in CHO cell membranes at 1 uM after 120 mins by scintillation counting method relative to control
outcome.measure: inhibition (%)

Worked examples, 2 molecules total:
INSERT INTO measurements (smiles_record, outcome_measure, value_reported) VALUES
  ('Nc1nccn2cc(-c3ccco3)nc12', 'inhibition', 5),
  ('Nc1nc(-c2ccccc2)cn2cc(-c3ccco3)nc12', 'inhibition', 21);

A = COc1cccc(-c2cn3cc(-c4ccccc4)nc3c(N)n2)c1
B = Nc1nc(Br)cn2cc(-c3ccccc3)nc12
// compare: A vs B , metric inhibition, want the smaller Give the label of your selection.
B
(B: 14%, A: 21%)

====

- system.name: Adenosine receptor A1 (Homo sapiens) (UniProt P30542)
- Sequence (whole entry): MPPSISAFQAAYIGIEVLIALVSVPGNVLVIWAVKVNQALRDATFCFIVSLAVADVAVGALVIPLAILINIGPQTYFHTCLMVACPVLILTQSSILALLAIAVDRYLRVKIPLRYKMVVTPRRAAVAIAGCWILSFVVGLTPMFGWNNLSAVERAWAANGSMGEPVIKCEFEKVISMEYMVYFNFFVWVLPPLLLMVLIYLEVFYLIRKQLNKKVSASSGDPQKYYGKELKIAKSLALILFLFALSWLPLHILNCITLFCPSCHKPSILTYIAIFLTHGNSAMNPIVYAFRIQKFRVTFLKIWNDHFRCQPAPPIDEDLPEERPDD
- assay.details: Displacement of [3H]DPCPX from human adenosine A1 receptor expressed in CHO cell membranes at 1 uM after 120 mins by scintillation counting method relative to control
outcome.measure: inhibition (%)

1 = COc1ccc(C(=O)Nc2nccn3cc(-c4ccccc4)nc23)cc1
2 = Nc1nccn2cc(-c3ccco3)nc12
// compare: 1 vs 2 , metric inhibition, want the smaller Give the label of your selection.
1
(1: 1%, 2: 21%)

A = Cc1ccc(C(=O)Nc2nc(-c3ccccc3)cn3cc(-c4ccccc4)nc23)cc1
B = Cc1ccc(C(=O)Nc2nccn3cc(-c4ccccc4)nc23)cc1
// compare: A vs B , metric inhibition, want the smaller Give the label of your selection.
A

a = O=C(Nc1ccccc1)Nc1nccn2cc(-c3ccccc3)nc12
b = Nc1nc(-c2ccco2)cn2cc(-c3ccccc3)nc12
c = COc1ccc(-c2cn3cc(-c4ccccc4)nc(NC(=O)c4ccccc4)c3n2)cc1
Sort ascending by inhibition. Answer format: the labels, in the requested order.
a, c, b
(a: 1%, c: 3%, b: 28%)

====

- system.name: Adenosine receptor A3 (Homo sapiens, UniProt P0DMS8)
- Sequence (P0DMS8 whole entry, looked up): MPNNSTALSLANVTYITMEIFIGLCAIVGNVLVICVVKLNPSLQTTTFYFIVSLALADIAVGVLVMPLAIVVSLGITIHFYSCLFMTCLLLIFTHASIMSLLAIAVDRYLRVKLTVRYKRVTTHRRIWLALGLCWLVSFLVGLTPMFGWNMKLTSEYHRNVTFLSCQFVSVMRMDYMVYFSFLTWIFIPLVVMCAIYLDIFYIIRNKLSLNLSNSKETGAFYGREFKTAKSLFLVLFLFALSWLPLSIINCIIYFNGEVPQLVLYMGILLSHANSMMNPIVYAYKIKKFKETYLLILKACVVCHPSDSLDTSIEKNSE
outcome.measure: Ki (nM)

P = O=C(c1ccccc1)N(C(=O)c1ccccc1)c1nccn2cc(-c3ccccc3)nc12
Q = COc1ccc(C(=O)Nc2nccn3cc(-c4ccccc4)nc23)cc1
// compare: P vs Q , metric Ki, want the smaller Give the label of your selection.
P
(P: 64 nM, Q: 162 nM)

A = O=C(Nc1nccn2cc(-c3ccccc3)nc12)c1ccccc1
B = O=C(Nc1nc(-c2ccccc2)cn2cc(-c3ccccc3)nc12)c1ccccc1
Field: entry with larger Ki (options A / B ). Give the label of your selection.
B
(B: 82 nM, A: 52 nM)

====

- system.name: Adenosine receptor A3 (Rattus norvegicus) (UniProt P28647)
- Sequence (P28647 whole entry): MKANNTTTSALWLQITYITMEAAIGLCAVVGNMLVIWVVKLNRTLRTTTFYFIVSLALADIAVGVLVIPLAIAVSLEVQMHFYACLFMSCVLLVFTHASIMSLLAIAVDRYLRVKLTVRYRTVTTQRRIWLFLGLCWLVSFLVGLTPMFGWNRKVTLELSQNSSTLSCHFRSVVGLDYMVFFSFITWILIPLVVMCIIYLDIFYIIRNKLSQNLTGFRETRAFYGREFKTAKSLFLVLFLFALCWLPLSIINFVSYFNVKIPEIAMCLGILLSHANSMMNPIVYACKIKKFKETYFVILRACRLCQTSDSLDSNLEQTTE
- assay.details: Displacement of [125I]AB-MECA from rat adenosine A3 receptor expressed in HEK293 cell membranes at 1 uM after 120 mins by scintillation counting method relative to control
outcome.measure: inhibition (%)

Worked examples, 3 compounds total:
INSERT INTO results (smiles_record, value_reported) VALUES
  ('O=C(Nc1nccn2cc(-c3ccccc3)nc12)c1ccccc1', 2),
  ('O=C(c1ccccc1)N(C(=O)c1ccccc1)c1nccn2cc(-c3ccccc3)nc12', 1),
  ('O=C(Nc1nc(-c2ccccc2)cn2cc(-c3ccccc3)nc12)c1cccnc1', 2);

a = O=C(Nc1nc(-c2ccccc2)cn2cc(-c3ccccc3)nc12)c1ccccc1
b = COc1ccc(C(=O)Nc2nc(-c3ccccc3)cn3cc(-c4ccccc4)nc23)cc1
Field: entry with larger inhibition (options a / b ). Give the label of your selection.
a
